# System: EKVX
# method: NCI tumour cell line growth inhibition, 48 h
Calls of active or inactive are those of the source. No stated cut-off is given here; in the data, active = GI50 up to about 1.1 µM and inactive = higher.
Just give me one of these, please: active, inactive

query: Each molecule tested received a call. Report the one for Cc1ccc([N+](=O)[O-])cc1NC(=O)C(=O)Cc1occc(=O)c1O .
result: inactive

query: Each molecule tested received a call. Report the one for CCOc1ccc2nc(NC(=O)C(=O)C(C(=O)c3ccccc3-c3ccccc3)C3OC(=O)c4ccccc43)sc2c1 (stereo not given) .
result: inactive

query: Each molecule tested received a call. Report the one for COc1cc(NS(C)(=O)=O)ccc1NCc1c[nH]c2ccc3nc(C)ccc3c12 .
result: inactive

query: Each molecule tested received a call. Report the one for CCOC(=O)c1ccc(/N=N\c2ccc(N(CCC#N)CCC#N)cc2C)cc1 .
result: inactive

query: Each molecule tested received a call. Report the one for Cn1c(/C=C/CO)c(CO)c2c1C(=O)C=C(N1CC1)C2=O [APAZIQUONE] .
result: active
